- System: Trichogramma nubilale
- test_method_notes: Contact toxicity against Trichogramma nubilale assessed as mortality after 24 hr by modified slight dry film method
- Assay type: functional
test_readout: LC95
Your reply should be a number followed by the unit it is expressed in.

Below, 4 compounds whose answers are already recorded.
CCCSP(=O)(OCC)Oc1ccc(Br)cc1Cl (stereo not given) [PROFENOFOS]: 1.73 mgAi/L
O=C(NC(=O)c1c(F)cccc1F)Nc1cc(Cl)c(OC(F)(F)C(F)F)c(Cl)c1 [HEXAFLUMURON]: 51197 mgAi/L
C=C(C)CNc1c([S+]([O-])C(F)(F)F)c(C#N)nn1-c1c(Cl)cc(C(F)(F)F)cc1Cl (stereo not given) [BUTENE-FIPRONIL]: 0.0419 mgAi/L
CCc1ccc(C(=O)NN(C(=O)c2cc(C)cc(C)c2)C(C)(C)C)cc1 [TEBUFENOZIDE]: 21616 mgAi/L

Proceed to the following item.
Record O=[N+]([O-])/N=C1\NCCN1Cc1ccc(Cl)nc1 [IMIDACLOPRID] , field LC95: 2675 mgAi/L

The measurements presented in this section are drawn from ChEMBL document CHEMBL3045809.
